The reported numbers originate from the RNAGym collection of RNA variant scans (doi:10.1021/acssynbio.7b00057).

B1: Pistol ribozyme (parent)
chain: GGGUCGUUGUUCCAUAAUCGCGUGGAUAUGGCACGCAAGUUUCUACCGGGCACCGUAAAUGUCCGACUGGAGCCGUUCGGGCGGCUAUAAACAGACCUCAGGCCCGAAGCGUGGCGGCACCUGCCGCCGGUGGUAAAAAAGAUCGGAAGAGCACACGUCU

variants of: B1; experiment: aptazyme ON/OFF ratio, guanine; higher = stronger switching; co-transcriptional cleavage with and without guanine
Assignment: determine reported aptazyme ON/OFF ratio for the given variants.
Numbers only.

Below are worked cases with known answers.
1. U7G U8G G9C U10G U11A C12A C13G ... 1.12
2. U7A U8C U10A U11C C12A C13G ... 1.17
3. U7C G9U U10C C12A C13U ... 1.09

For each entry beneath this line, provide reported aptazyme ON/OFF ratio.
1. U7A G9A U11A C12G C13A
2. U10G C12A C13A
3. U8G U11C C12A C13G
4. U8C G9U U11A C12U C13U
5. U7A U8C G9U U11C C12U C13A
6. U7A U8A U10C C12A

[A]
[1.19, 1.25, 1.23, 1.17, 1.12, 1.16]
